measurement.description: Half life in male cynomolgus monkey at 10 mg/kg,po by LC-MS/MS analysis
Type: ADME, organism-based, Macaca fascicularis
run.conditions: in vivo
measurement.type: half-life
Include the unit after the number when you answer.

IN: Consider the compound shown here: CCOC(=O)C1=C(CN2CCN3C(=O)N(CC(C)(C)C(=O)O)C[C@@H]3C2)NC(c2nccs2)=N[C@H]1c1cccc(F)c1C [LINVENCORVIR] What is its recorded half-life?
OUT: 6.64 h

----------
measurement.description: Half life in male minipig at 3 mg/kg,po by LC-MS/MS analysis
Assay type: ADME, organism-based, Sus scrofa domesticus
run.conditions: pig, in vivo
measurement.type: half-life (h)
Write down the numeric answer in h and omit the unit.

IN: What value of half-life has been reported for the following compound? CCOC(=O)C1=C(CN2CCN3C(=O)N(CC(C)(C)C(=O)O)C[C@@H]3C2)NC(c2nccs2)=N[C@H]1c1cccc(F)c1C [LINVENCORVIR]
OUT: 9.69

----------
measurement.description: Cmax in male Wistar Han rat at 10 mg/kg,po by LC-MS/MS analysis
Assay type: ADME, organism-based
Set-up: dose 10 mg/kg, route po
run.conditions: in vivo
measurement.type: Cmax (ng/mL)
Field format: number, assumed ng/mL, no unit text.

IN: Param item = `CCOC(=O)C1=C(CN2CCN3C(=O)N(CC(C)(C)C(=O)O)C[C@@H]3C2)NC(c2nccs2)=N[C@H]1c1cccc(F)c1C` ; retrieve measured Cmax.
OUT: 512

----------
measurement.description: Cmax in male cynomolgus monkey at 10 mg/kg,po by LC-MS/MS analysis
Assay type: ADME, organism-based, Macaca fascicularis
Set-up: dose 10 mg/kg, route po
run.conditions: in vivo
measurement.type: Cmax (ng/mL)
# output: bare number, implied unit ng/mL

IN: Report Cmax for CCOC(=O)C1=C(CN2CCN3C(=O)N(CC(C)(C)C(=O)O)C[C@@H]3C2)NC(c2nccs2)=N[C@H]1c1cccc(F)c1C [LINVENCORVIR] please.
OUT: 298

----------
measurement.description: Clearance in rat plasma at 1 mg/kg,iv
Assay type: ADME, organism-based
Would you mind telling me the reported clearance of each entry?
Phrase the answer as number then unit, nothing more needed.

IN: Can you share its clearance? I mean this molecule: `CCOC(=O)C1=C(CN2CCN3C(=O)N(CC(C)(C)C(=O)O)C[C@@H]3C2)NC(c2nccs2)=N[C@H]1c1cccc(F)c1Cl`
OUT: 65 mL/min/kg

IN: What value of clearance has been recorded for this entry: CCOC(=O)C1=C(CN2CCN3C(=O)N(CC(C)(C)C(=O)O)C[C@@H]3C2)NC(c2nccs2)=N[C@H]1c1cccc(F)c1C [LINVENCORVIR]
OUT: 30 mL/min/kg

IN: Which clearance value belongs to `CCOC(=O)C1=C(CN2C[C@H]3CN(C(C)(C)C)C(=O)N3C[C@@H]2C(=O)O)NC(c2nccs2)=N[C@H]1c1ccc(F)cc1Cl` ?
OUT: 87 mL/min/kg

----------
measurement.description: Tmax in male minipig at 3 mg/kg,po by LC-MS/MS analysis
Type: ADME, organism-based, Sus scrofa domesticus
run.conditions: pig, in vivo
measurement.type: Tmax (min)
Value expressed in min; do not type the unit.

IN: I'd like to know its Tmax. The compound in question is CCOC(=O)C1=C(CN2CCN3C(=O)N(CC(C)(C)C(=O)O)C[C@@H]3C2)NC(c2nccs2)=N[C@H]1c1cccc(F)c1C [LINVENCORVIR]
OUT: 30

The values you see were collected from ChEMBL document CHEMBL5316357.
